We begin with a simple list: items and their reported Percent Risperidone Released at Day 15.
# experiment-description: In vitro release of risperidone from devices loaded with various risperidone addition salts (Example 5)
# Format: physicochemical
# assay-conditions: cumulative percent of total risperidone released from device; two-fold molar excess of acid; PBS, 37° C., 15 days
Give just the number in %; leave the unit off.

Solved cases (4 shown):
>  <compound>
O=C(O)CCCCCCCCC(=O)O [Sebacic acid, sebacic acid]

>  <Percent Risperidone Released at Day 15, %>
55

$$$$
>  <compound>
O=C(O)CCc1ccc(O)cc1 [Hydroxyphenylpropionic acid, 3-(4-hydroxyphenyl) propionic acid]

>  <Percent Risperidone Released at Day 15, %>
92

$$$$
>  <compound>
COc1cc(C(=O)O)ccc1O [Vinallic acid, vanillic acid]

>  <Percent Risperidone Released at Day 15, %>
55

$$$$
>  <compound>
Nc1ccc(C(=O)O)cc1 [PABA, 4-aminobenzoic acid]

>  <Percent Risperidone Released at Day 15, %>
45

$$$$

Exercise: Given O=C(O)CNC(=O)c1ccccc1 [Hippuric acid] , state its recorded Percent Risperidone Released at Day 15.
Solution: 94

Exercise: Item: O=C(O)c1ccc(C(=O)O)cc1 [Terephthalic acid]
Solution: 2.6

Exercise: Item: O=c1[nH]c(=O)c2[nH]c(=O)[nH]c2[nH]1 [Uric acid]
Solution: 16

###

# experiment-description: In vitro release of risperidone from devices loaded with various risperidone addition salts (Example 5)
# Format: physicochemical
# assay-conditions: device in 100 mL PBS at 37° C.; risperidone salt with two-fold molar excess of acid
We begin with a simple list: items and their reported cumulative in vitro release of risperidone after 15 days (percent of total loaded drug).
Give just the number in %; leave the unit off.

>  <compound>
O=C(O)c1ccc(C(=O)O)cc1 [Terephthalic acid]

>  <unit-of-measure>
%

>  <result>
2.6

$$$$
>  <compound>
O=c1[nH]c(=O)c2[nH]c(=O)[nH]c2[nH]1 [Uric acid]

>  <unit-of-measure>
%

>  <result>
16

$$$$
>  <compound>
O=C(O)CNC(=O)c1ccccc1 [Hippuric acid]

>  <unit-of-measure>
%

>  <result>
94

$$$$

Exercise: Given O=C(O)CCc1ccc(O)cc1 [Hydroxyphenylpropionic acid, 3-(4-hydroxyphenyl) propionic acid] , state its recorded cumulative in vitro release of risperidone after 15 days (percent of total loaded drug).
Solution: 92
